test system: HCT116 WT cells; experiment: HCT116 WT cell proliferation / viability (CellTiter-Glo, 6 days); assay type: cell-based; conditions: Homo sapiens, HCT-116, 144 h, HCT116 WT cells, 6 days, CellTiter-Glo; read-out: HCT-116 WT IC50
Could you please report measured IC50 for the items listed next?
One number for each entry, in nM.

CN(Cc1ccc(C(F)(F)F)cc1)C(=O)c1cc2c(cc1F)nc(N)c1cnn(C)c12	1880
Nc1nc2cc(Cl)c(C(=O)N(Cc3ccc(C(F)(F)F)cn3)C3CC3)cc2c2c1COC2	1260

Switching to the query record.
Determine from records and report IC50 for Nc1nc2cnc(C(=O)N(Cc3ccc(C(F)(F)F)cn3)c3cnn(C4CC4)c3)cc2c2c1COC2
4170

----------
Could you please report measured IC50 for the items listed next?
tested on: HCT116 WT cells; assay: HCT116 WT cell proliferation / viability (CellTiter-Glo, 6 days); assay type: cell-based; conditions: Homo sapiens, HCT-116, 144 h, HCT116 WT cells, 6 days, CellTiter-Glo; read-out: HCT-116 WT IC50
Give bare numbers, in µM.

Here are 5 compounds together with their reported answers.
CC(C)N(Cc1ccc(Br)nn1)C(=O)c1ccc2nc(N)c3c(c2c1)CO[C@@H]3C	6.09
C[C@H]1OCc2c1c(N)nc1cnc(C(=O)N(C)Cc3ccc(C(F)(F)F)cn3)cc21	13.6
COC[C@H](C1CC1)N(Cc1ccc(Br)nn1)C(=O)c1cnc2nc(N)c3c(c2c1)COC3 (single isomer, unassigned)	3.52
Cn1ncc2c3cc(C(=O)N(Cc4ccc(C(F)(F)F)nn4)CC4CC4)c(F)cc3nc(N)c21	2.09
CC(C)N(Cc1ccc(C(F)(F)F)nn1)C(=O)c1ccc2nc(N)c3c(c2c1)COC3	4.54

Please state IC50 for every compound in the list that follows.
1. C[C@@H](c1ccc(S(F)(F)(F)(F)F)cc1)N(C)C(=O)c1cc2c(cc1F)nc(N)c1cnn(C)c12 (single isomer, unassigned)
2. COC(=O)N1CC=C(c2ccc(CN(C)C(=O)c3ccc4nc(N)c5c(c4c3)COC5)nc2)CC1

[8.43, 12.8]

----------
test system: HCT116 WT cells; experiment: HCT116 WT cell proliferation / viability (CellTiter-Glo, 6 days); type: cell-based; conditions: Homo sapiens, HCT-116, 144 h, HCT116 WT cells, 6 days, CellTiter-Glo; read-out: HCT-116 WT IC50
Could you please report measured IC50 for the items listed next?
Numbers only, in µM.

Here are 2 compounds together with their reported answers.
COC[C@@H](C)N(Cc1ccc(Br)nn1)C(=O)c1cc2c3c(c(N)nc2cn1)[C@@H](C)OC3	3.25
CCN(C(=O)c1ccc2nc(N)c3c(c2c1)COC3)[C@H](C)c1ccc(C#N)cc1 (single isomer, unassigned)	3.76

Switching to the query record.
Find the measured IC50 of C[C@@H](c1ccc(C(F)(F)F)nn1)N(C(=O)c1cc2c(cc1Cl)nc(N)c1cnn(C)c12)C1CC1 (single isomer, unassigned) with HCT116 WT cells as test system.
8.31

----------
tested on: HCT116 WT cells; assay: HCT116 WT cell proliferation / viability (CellTiter-Glo, 6 days); assay type: cell-based; conditions: Homo sapiens, HCT-116, 144 h, HCT116 WT cells, 6 days, CellTiter-Glo; read-out: HCT-116 WT IC50
OUTCOME_MEASURE: IC50 (µM)
Numbers only, in µM.

Here are 2 compounds together with their reported answers.
CC(C)CN(Cc1ccc(C(F)(F)F)nn1)C(=O)c1cc2c3c(c(N)nc2cn1)COC3	8.02
N#Cc1ccc(CN(CC2CC2)C(=O)c2cc3c4c(c(N)nc3cc2Cl)COC4)nc1	1.33

Switching to the query record.
Determine from records and report IC50 for CN(Cc1ncc(C(F)(F)F)cc1F)C(=O)c1cc2c3c(c(N)nc2cc1F)COC3
5.42
